Recorded IC50, one value per entry.
tested-on: human RNR (purified R1 and R2 subunits) (Homo sapiens, UniProt P23921+P31350)
Sequence (P23921 whole entry): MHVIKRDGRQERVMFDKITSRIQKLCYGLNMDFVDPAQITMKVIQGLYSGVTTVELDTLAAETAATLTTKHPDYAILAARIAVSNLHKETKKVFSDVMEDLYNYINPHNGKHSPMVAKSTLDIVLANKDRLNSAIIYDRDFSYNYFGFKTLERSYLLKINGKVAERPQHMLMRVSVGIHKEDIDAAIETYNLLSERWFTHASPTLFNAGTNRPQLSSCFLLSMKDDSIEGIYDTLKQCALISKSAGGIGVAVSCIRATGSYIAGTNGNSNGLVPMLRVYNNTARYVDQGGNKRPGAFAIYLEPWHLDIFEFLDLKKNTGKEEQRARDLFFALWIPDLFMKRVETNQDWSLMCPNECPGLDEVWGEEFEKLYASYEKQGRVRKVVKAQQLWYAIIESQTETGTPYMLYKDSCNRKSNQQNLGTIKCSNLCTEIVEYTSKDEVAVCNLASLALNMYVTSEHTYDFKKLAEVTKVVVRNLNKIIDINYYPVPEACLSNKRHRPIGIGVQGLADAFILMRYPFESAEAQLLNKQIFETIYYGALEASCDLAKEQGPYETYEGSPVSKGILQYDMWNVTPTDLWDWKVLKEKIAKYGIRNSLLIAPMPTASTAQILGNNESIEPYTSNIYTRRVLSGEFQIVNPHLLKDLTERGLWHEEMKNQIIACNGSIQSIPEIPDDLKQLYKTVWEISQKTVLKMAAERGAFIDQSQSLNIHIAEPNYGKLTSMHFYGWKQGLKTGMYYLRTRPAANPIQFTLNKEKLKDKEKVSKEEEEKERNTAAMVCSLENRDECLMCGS
Sequence (P31350 whole entry): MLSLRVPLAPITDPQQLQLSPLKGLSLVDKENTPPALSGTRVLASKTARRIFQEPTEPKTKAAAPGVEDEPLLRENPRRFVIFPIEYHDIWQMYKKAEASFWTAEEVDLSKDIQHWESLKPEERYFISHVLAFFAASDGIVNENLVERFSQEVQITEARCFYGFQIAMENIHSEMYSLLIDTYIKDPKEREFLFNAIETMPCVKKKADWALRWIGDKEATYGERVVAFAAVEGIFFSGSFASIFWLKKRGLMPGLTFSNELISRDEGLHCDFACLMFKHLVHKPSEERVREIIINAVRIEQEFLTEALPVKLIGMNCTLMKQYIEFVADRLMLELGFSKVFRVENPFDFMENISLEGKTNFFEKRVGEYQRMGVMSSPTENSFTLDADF
test-protocol: In vitro measurement of human RNR inhibitory activity (conversion of CDP to dCDP, HPLC)
assay-context: 100 μM CDP, 37° C., 30 minutes, read-out: RNR Inhibition (IC50)
Quick reminder: number only, in nM, skip the unit.

Use these answered entries as a reference point.
[
  {
    "mol": "O=C1CCC(=O)N1CCN(CCSc1ccc(O)cc1)CCSc1ccc(O)cc1",
    "IC50 [nM]": 3140
  },
  {
    "mol": "Oc1ccc(SCC=CCSc2ccc(O)cc2)cc1",
    "IC50 [nM]": 690
  }
]

QUERY: // IC50 lookup, key: C=CCN(CCSc1ccc(O)cc1)CCSc1ccc(O)cc1
RESULT: 820

QUERY: What value of measured IC50 is listed for Oc1ccc(SCCN(CCSc2ccc(O)cc2)Cc2ccccn2)cc1 ?
RESULT: 1580

QUERY: Name the recorded IC50 for COCC(=O)Oc1ccc(SCCN(CCSc2ccc(OC(=O)COC)cc2)CC(N)=O)cc1 .
RESULT: 5200

These measurements were taken from patent US6608061B2.
